# Test system: Rattus norvegicus
# measurement notes: Antihyperglycemic activity in streptozotocin-induced type 2 diabetic Wistar albino rat assessed as reduction in plasma glucose level at 50 mg/kg, po by glucometer
# Type: functional
Note to self: use rule met only for Activity readings below 30 mg/dL; a reading exactly at 30 mg/dL still gets rule not met.

Recorded results for 3 compounds are shown here.
>  <compound>
O=C1NC(=O)/C(=C/c2ccc(/C=C/C(=O)c3ccc(O)cc3O)cc2)S1

>  <assigned label>
rule not met

$$$$
>  <compound>
CN(CCOc1ccc(CC2SC(=O)NC2=O)cc1)c1ccccn1 (stereo not given)

>  <assigned label>
rule met

$$$$
>  <compound>
O=C1NC(=O)/C(=C/c2ccc(/C=C/C(=O)c3ccc4ccccc4c3)cc2)S1

>  <assigned label>
rule not met

$$$$

Note: attention shifts to another entry.
q: Find out if reported Activity for "O=C1NC(=O)/C(=C/c2ccc(/C=C/C(=O)c3cccc([N+](=O)[O-])c3)cc2)S1" is less than 30 mg/dL
a: rule met

###

# Test system: Bacillus pumilus
# measurement notes: Antibacterial activity against Bacillus pumilus NCIM 2327 after 24 hrs by NCCLS agar well diffusion method
# Assay type: functional
# run parameters: NCIM 2327, 24 h
Give MIC for every item shown.
One number for each entry, in µg/mL.

>  <smiles repr>
Nc1ccc(C(=O)/C=C/c2ccc(/C=C3\SC(=O)NC3=O)cc2)cc1

>  <study target>
Bacillus pumilus

>  <MIC, µg/mL>
128

$$$$
>  <smiles repr>
O=C1NC(=O)/C(=C/c2ccc(/C=C/C(=O)c3ccc(F)cc3)cc2)S1

>  <study target>
Bacillus pumilus

>  <MIC, µg/mL>
16

$$$$
>  <smiles repr>
O=C1NC(=O)/C(=C/c2ccc(/C=C/C(=O)c3ccc4ccccc4c3)cc2)S1

>  <study target>
Bacillus pumilus

>  <MIC, µg/mL>
512

$$$$

q: Return MIC for the following compound: "O=C1NC(=O)/C(=C/c2ccc(/C=C/C(=O)c3cccc(F)c3)cc2)S1"
a: 32

###

# Tested on: Rattus norvegicus
# measurement notes: Antihyperglycemic activity in streptozotocin-induced type 2 diabetic Wistar albino rat assessed as reduction in plasma glucose level at 50 mg/kg, po by glucometer
# Format: functional
I'd appreciate it if you marked entries y when Activity is lower than 30 mg/dL and n when it is not.

q: Below 30 mg/dL on Activity? Entry "Cc1ccc(C(=O)/C=C/c2ccc(/C=C3\SC(=O)NC3=O)cc2)cc1"
a: y

q: Dear reviewer, please state whether "O=C1NC(=O)/C(=C/c2ccc(/C=C/C(=O)c3cc(O)ccc3O)cc2)S1" has Activity strictly beneath 30 mg/dL.
a: n

q: Check if Activity falls below 30 mg/dL for "Cc1ccc(O)c(C(=O)/C=C/c2ccc(/C=C3\SC(=O)NC3=O)cc2)c1" .
a: n

q: hey, is Activity for "O=C1NC(=O)/C(=C/c2ccc(/C=C/C(=O)c3cccnc3)cc2)S1" lower than 30 mg/dL or not?
a: n

q: Lab log: compare recorded Activity with 30 mg/dL; is it strictly lower for "O=C1NC(=O)/C(=C/c2ccc(/C=C/C(=O)c3ccccc3O)cc2)S1" ?
a: y

###

Task for the reader: assign each of the following compounds its reported MIC.
# Test system: Staphylococcus aureus
# measurement notes: Antibacterial activity against Staphylococcus aureus NCIM 2079 after 24 hrs by NCCLS agar well diffusion method
# Assay type: functional
# run parameters: NCIM 2079, 24 h
Answers are plain numbers, in mg/L.

Recorded MIC, per entry:
>  <smiles repr>
Nc1ccc(C(=O)/C=C/c2ccc(/C=C3\SC(=O)NC3=O)cc2)cc1

>  <observed property>
MIC

>  <numeric readout>
128

$$$$
>  <smiles repr>
O=C1NC(=O)/C(=C/c2ccc(/C=C/C(=O)c3ccc4ccccc4c3)cc2)S1

>  <observed property>
MIC

>  <numeric readout>
512

$$$$
>  <smiles repr>
Nc1cccc(C(=O)/C=C/c2ccc(/C=C3\SC(=O)NC3=O)cc2)c1

>  <observed property>
MIC

>  <numeric readout>
256

$$$$
>  <smiles repr>
O=C1NC(=O)/C(=C/c2ccc(/C=C/C(=O)c3cccnc3)cc2)S1

>  <observed property>
MIC

>  <numeric readout>
128

$$$$

Let us examine a further case.
q: Specify the recorded MIC for "COc1ccc(C(=O)/C=C/c2ccc(/C=C3\SC(=O)NC3=O)cc2)cc1" , system: Staphylococcus aureus.
a: 32

###

# Tested on: Bacillus pumilus
# measurement notes: Antibacterial activity against Bacillus pumilus NCIM 2327 after 24 hrs by NCCLS agar well diffusion method
# Assay type: functional
# run parameters: NCIM 2327, 24 h
Answer each item with its documented MIC.
Answers are plain numbers, in µg/mL.

Below: 4 compounds and their reported MIC.
>  <smiles repr>
O=C1NC(=O)/C(=C/c2ccc(/C=C/C(=O)c3ccc(Cl)cc3)cc2)S1

>  <study target>
Bacillus pumilus

>  <units label>
µg/mL

>  <MIC>
16

$$$$
>  <smiles repr>
Nc1cccc(C(=O)/C=C/c2ccc(/C=C3\SC(=O)NC3=O)cc2)c1

>  <study target>
Bacillus pumilus

>  <units label>
µg/mL

>  <MIC>
256

$$$$
>  <smiles repr>
O=C1NC(=O)/C(=C/c2ccc(/C=C/C(=O)c3ccccc3)cc2)S1

>  <study target>
Bacillus pumilus

>  <units label>
µg/mL

>  <MIC>
256

$$$$
>  <smiles repr>
Cc1cccc(C(=O)/C=C/c2ccc(/C=C3\SC(=O)NC3=O)cc2)c1O

>  <study target>
Bacillus pumilus

>  <units label>
µg/mL

>  <MIC>
128

$$$$

I need MIC for every entry listed below, if you could help.
1. O=C1NC(=O)/C(=C/c2ccc(/C=C/C(=O)c3cccs3)cc2)S1
2. O=C1NC(=O)/C(=C/c2ccc(/C=C/C(=O)c3cccc([N+](=O)[O-])c3)cc2)S1
3. Cc1ccc(O)c(C(=O)/C=C/c2ccc(/C=C3\SC(=O)NC3=O)cc2)c1
4. O=C1NC(=O)/C(=C/c2ccc(/C=C/C(=O)c3ccc4c(c3)Cc3ccccc3-4)cc2)S1

a:
1: 16; 2: 256; 3: 256; 4: 256

Batch: MIC for all items listed.
1. COc1ccc(C(=O)/C=C/c2ccc(/C=C3\SC(=O)NC3=O)cc2)cc1
2. COc1cccc(C(=O)/C=C/c2ccc(/C=C3\SC(=O)NC3=O)cc2)c1

a:
[64, 128]

###

# Test system: Staphylococcus aureus
# measurement notes: Antibacterial activity against Staphylococcus aureus NCIM 2079 after 24 hrs by NCCLS agar well diffusion method
# Assay type: functional
# run parameters: NCIM 2079, 24 h
observed property: MIC (µg/mL)
Give bare numbers, in µg/mL.

Solved cases (5 shown):
>  <smiles repr>
O=C1NC(=O)/C(=C/c2ccc(/C=C/C(=O)c3ccc4c(c3)Cc3ccccc3-4)cc2)S1

>  <study target>
Staphylococcus aureus

>  <MIC [µg/mL]>
256

$$$$
>  <smiles repr>
O=C1NC(=O)/C(=C/c2ccc(/C=C/C(=O)c3ccc(O)cc3O)cc2)S1

>  <study target>
Staphylococcus aureus

>  <MIC [µg/mL]>
256

$$$$
>  <smiles repr>
O=C1NC(=O)/C(=C/c2ccc(/C=C/C(=O)c3ccc(F)cc3)cc2)S1

>  <study target>
Staphylococcus aureus

>  <MIC [µg/mL]>
32

$$$$
>  <smiles repr>
O=C1NC(=O)/C(=C/c2ccc(/C=C/C(=O)c3cccc(Cl)c3)cc2)S1

>  <study target>
Staphylococcus aureus

>  <MIC [µg/mL]>
64

$$$$
>  <smiles repr>
COc1cccc(C(=O)/C=C/c2ccc(/C=C3\SC(=O)NC3=O)cc2)c1

>  <study target>
Staphylococcus aureus

>  <MIC [µg/mL]>
128

$$$$

// each listed compound needs a value for MIC
1. O=C1NC(=O)/C(=C/c2ccc(/C=C/C(=O)c3ccccn3)cc2)S1
2. O=C1NC(=O)/C(=C/c2ccc(/C=C/C(=O)c3ccc([N+](=O)[O-])cc3)cc2)S1
3. O=C1NC(=O)/C(=C/c2ccc(/C=C/C(=O)c3ccc(O)cc3)cc2)S1

a:
64
512
128

q: Assign MIC to the following record: "O=C1NC(=O)/C(=C/c2ccc(/C=C/C(=O)c3cccc([N+](=O)[O-])c3)cc2)S1"
a: 128

###

Exercise: for every item that follows, state its recorded log10 of MIC.
# System: Micrococcus luteus
# measurement notes: Antibacterial activity against Micrococcus luteus NCIM 2155 after 24 hrs by NCCLS agar well diffusion method
# Type: functional
# run parameters: NCIM 2155, 24 h
Heads up: the numbers are on a log10 scale; they represent MIC in µg/mL.

>  <smiles repr>
Cc1ccc(C(=O)/C=C/c2ccc(/C=C3\SC(=O)NC3=O)cc2)cc1

>  <log10 of MIC>
1.81

$$$$
>  <smiles repr>
O=C1NC(=O)/C(=C/c2ccc(/C=C/C(=O)c3cccc(F)c3)cc2)S1

>  <log10 of MIC>
1.81

$$$$
>  <smiles repr>
O=C1NC(=O)/C(=C/c2ccc(/C=C/C(=O)c3ccccc3)cc2)S1

>  <log10 of MIC>
2.71

$$$$
>  <smiles repr>
O=C1NC(=O)/C(=C/c2ccc(/C=C/C(=O)c3ccc([N+](=O)[O-])cc3)cc2)S1

>  <log10 of MIC>
2.71

$$$$
>  <smiles repr>
O=C1NC(=O)/C(=C/c2ccc(/C=C/C(=O)c3cccs3)cc2)S1

>  <log10 of MIC>
1.51

$$$$

Please go through the list and note log10 of MIC for each molecule.
1. O=C1NC(=O)/C(=C/c2ccc(/C=C/C(=O)c3ccc4c(c3)Cc3ccccc3-4)cc2)S1
2. COc1ccc(C(=O)/C=C/c2ccc(/C=C3\SC(=O)NC3=O)cc2)cc1

a:
2.71
1.81

Batch request: log10 of MIC per item, same order as input.
1. O=C1NC(=O)/C(=C/c2ccc(/C=C/C(=O)c3ccc(F)cc3)cc2)S1
2. O=C1NC(=O)/C(=C/c2ccc(/C=C/C(=O)c3cccc(Cl)c3)cc2)S1
3. O=C1NC(=O)/C(=C/c2ccc(/C=C/C(=O)c3ccc4ccccc4c3)cc2)S1
4. O=C1NC(=O)/C(=C/c2ccc(/C=C/C(=O)c3cccc([N+](=O)[O-])c3)cc2)S1
5. Nc1cccc(C(=O)/C=C/c2ccc(/C=C3\SC(=O)NC3=O)cc2)c1
6. Cc1cccc(C(=O)/C=C/c2ccc(/C=C3\SC(=O)NC3=O)cc2)c1O
7. O=C1NC(=O)/C(=C/c2ccc(/C=C/C(=O)c3ccc(O)cc3)cc2)S1

a:
[1.51, 1.81, 2.71, 2.41, 2.41, 2.71, 2.41]

Working through the 3 molecules below one at a time, give log10 of MIC for each.
1. O=C1NC(=O)/C(=C/c2ccc(/C=C/C(=O)c3ccccn3)cc2)S1
2. Nc1ccc(C(=O)/C=C/c2ccc(/C=C3\SC(=O)NC3=O)cc2)cc1
3. O=C1NC(=O)/C(=C/c2ccc(/C=C/C(=O)c3cc(O)ccc3O)cc2)S1

a:
1.51
2.41
2.71
